target: HLA-DRB1*01:01 (Homo sapiens, UniProt P01903+P01911, A100R/D57E/F55L/F60I/F76Y/I96L/L162R/M171V/P40L/Q125E/R42F/V115G/Y59C); construct: EBV transformed homozygous cell lines were used as sources of MHC molecules; endogenous in cells; host or cells: EBV transformed homozygous cell lines; assay: HLA class II peptide binding, inhibition of radiolabeled peptide binding to purified MHC; settings: citrullinated peptide as listed (X at Cit position); read-out: DRB1*01:01 binding capacity Cit peptide (IC50 nM)
Square brackets hold non-standard residues; d marks the D form. Peptide text beside a SMILES is read from it. Cit = NC(=O)NCCC[C@H](N)C(=O)O
ENDPOINT: IC50
State the result as a value with its unit after it.

[[record]]
molecule = "CC[C@H](C)[C@H](NC(=O)[C@H](CC(N)=O)NC(=O)[C@H](CCC(N)=O)NC(=O)[C@H](CO)NC(=O)CNC(=O)[C@H](CCC(=O)O)NC(=O)[C@@H](NC(=O)[C@H](CO)NC(=O)[C@H](CC(C)C)NC(=O)[C@H](CC(C)C)NC(=O)[C@H](CCCNC(N)=O)NC(=O)[C@H](CC(C)C)NC(=O)[C@H](Cc1ccccc1)NC(=O)[C@@H](N)[C@@H](C)O)[C@@H](C)O)C(=O)N[C@H](C(=O)O)[C@@H](C)O [TFLXLLSTEGSQNIT] (H-TFL[Cit]LLSTEGSQNIT-OH)"
endpoint = "IC50"
reading = "5.6 nM"


# ---- query molecule ----
Lookup: Give the measured IC50 of CC[C@H](C)[C@H](NC(=O)[C@H](CC(=O)O)NC(=O)[C@@H](NC(=O)[C@@H](NC(=O)[C@@H]1CCCN1C(=O)[C@H](CC(C)C)NC(=O)[C@H](CCCNC(=N)N)NC(=O)[C@H](CO)NC(=O)[C@@H](NC(=O)[C@H](CCCCN)NC(=O)[C@H](CCC(N)=O)NC(=O)[C@H](CO)NC(=O)[C@H](CCCNC(N)=O)NC(=O)[C@H](Cc1ccc(O)cc1)NC(=O)[C@@H](N)CCC(=O)O)[C@@H](C)O)[C@@H](C)CC)[C@@H](C)CC)C(=O)O [EYXSQKTSRLPIIDI] (H-EY[Cit]SQKTSRLPIIDI-OH) .
Found: 5.9 nM

meta.source: paper PMC5421785
